molecular target: Hap1 (UniProt P0CE41); assay: PBM E-score (8-mer binding enrichment) (E-score (-0.5 to 0.5)); higher = stronger / more preferred TF binding; conditions: protein concentration: 200 nM; construct: GST-DNA-binding domain
Sequence (P0CE41 whole entry, the tested form may be a part): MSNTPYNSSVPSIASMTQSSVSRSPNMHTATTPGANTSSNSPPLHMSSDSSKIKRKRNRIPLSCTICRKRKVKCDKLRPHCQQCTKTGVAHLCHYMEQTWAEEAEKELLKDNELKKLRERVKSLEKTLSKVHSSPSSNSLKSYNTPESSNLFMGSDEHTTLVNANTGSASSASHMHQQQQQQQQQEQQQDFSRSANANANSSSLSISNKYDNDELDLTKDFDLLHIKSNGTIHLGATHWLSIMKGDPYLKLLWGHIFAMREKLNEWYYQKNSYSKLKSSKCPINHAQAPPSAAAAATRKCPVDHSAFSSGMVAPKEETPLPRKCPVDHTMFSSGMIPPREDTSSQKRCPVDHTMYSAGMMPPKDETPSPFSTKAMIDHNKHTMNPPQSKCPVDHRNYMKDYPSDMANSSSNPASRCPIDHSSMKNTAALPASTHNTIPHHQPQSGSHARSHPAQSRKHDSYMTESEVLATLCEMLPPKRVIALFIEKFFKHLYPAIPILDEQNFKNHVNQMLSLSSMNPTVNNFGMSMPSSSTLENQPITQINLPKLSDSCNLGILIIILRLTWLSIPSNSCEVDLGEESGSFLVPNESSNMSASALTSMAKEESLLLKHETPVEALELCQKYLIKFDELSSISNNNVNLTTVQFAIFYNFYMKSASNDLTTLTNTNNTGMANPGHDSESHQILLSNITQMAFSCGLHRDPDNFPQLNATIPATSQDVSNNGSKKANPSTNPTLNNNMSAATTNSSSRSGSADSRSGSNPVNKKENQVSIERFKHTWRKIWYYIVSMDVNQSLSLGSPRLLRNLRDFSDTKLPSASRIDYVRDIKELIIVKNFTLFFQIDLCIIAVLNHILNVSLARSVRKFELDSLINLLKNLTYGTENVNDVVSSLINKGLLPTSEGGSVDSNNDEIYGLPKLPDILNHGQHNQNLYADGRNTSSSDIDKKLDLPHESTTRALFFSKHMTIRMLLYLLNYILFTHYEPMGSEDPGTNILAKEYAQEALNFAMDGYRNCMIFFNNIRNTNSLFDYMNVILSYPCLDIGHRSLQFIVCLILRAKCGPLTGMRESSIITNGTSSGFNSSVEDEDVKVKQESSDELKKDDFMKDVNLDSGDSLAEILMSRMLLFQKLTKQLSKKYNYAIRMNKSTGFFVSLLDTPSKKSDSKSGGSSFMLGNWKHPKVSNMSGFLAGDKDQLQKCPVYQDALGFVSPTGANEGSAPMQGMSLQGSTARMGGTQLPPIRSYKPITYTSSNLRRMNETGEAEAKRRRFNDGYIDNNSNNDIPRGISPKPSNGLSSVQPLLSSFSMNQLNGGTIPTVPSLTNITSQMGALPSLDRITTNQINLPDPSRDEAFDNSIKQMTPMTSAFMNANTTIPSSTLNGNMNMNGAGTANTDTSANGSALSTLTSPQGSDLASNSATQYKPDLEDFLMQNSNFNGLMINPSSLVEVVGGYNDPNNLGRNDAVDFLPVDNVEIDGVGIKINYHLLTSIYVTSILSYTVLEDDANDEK
The full ranking holds about 33,000 sequences; the median of “E-score (-0.5 to 0.5)” is about -0.053, and the highest 2% start at about 0.37. This is one part of a sample in which the highest values are shown more often than they occur.
Mark Criterion not met for PBM E-score values under -0.2, and Criterion met for everything at or above.

For orientation, consider the following solved cases.
>  <SEQUENCE CONTENT>
AGAGGGCA

>  <GROUP LABEL>
Criterion met

$$$$
>  <SEQUENCE CONTENT>
ACGATAGC

>  <GROUP LABEL>
Criterion met

$$$$
>  <SEQUENCE CONTENT>
TATTTGGA

>  <GROUP LABEL>
Criterion not met

$$$$
>  <SEQUENCE CONTENT>
ACGATAGA

>  <GROUP LABEL>
Criterion met

$$$$
>  <SEQUENCE CONTENT>
CCAAGCTA

>  <GROUP LABEL>
Criterion met

$$$$

Problem: Can GCGATAGC be said to have PBM E-score at or above -0.2?
Result: Criterion met

###

target: Hap1 (UniProt P0CE41); test: PBM E-score (8-mer binding enrichment) (E-score (-0.5 to 0.5)); higher = stronger / more preferred TF binding; conditions: protein concentration: 200 nM; construct: GST-DNA-binding domain
Over roughly 33,000 sequences, “E-score (-0.5 to 0.5)” has its median near -0.053; the highest 2% begin near 0.37. Only a selection was taken, and the highest values are over-represented in it overall.
Hi there, I'd appreciate the recorded PBM E-score for every entry that follows.
Answers are plain numbers.

Known PBM E-score results, listed for orientation:
>  <SEQUENCE CONTENT>
CTGCCCGA

>  <NUMERIC RESULT>
0.202

$$$$
>  <SEQUENCE CONTENT>
AATTTCCG

>  <NUMERIC RESULT>
0.437

$$$$
>  <SEQUENCE CONTENT>
ATTTTCCA

>  <NUMERIC RESULT>
-0.0537

$$$$

Problem: Item CCGCCCGA has what recorded PBM E-score?
Result: 0.37

###

Hi there, I'd appreciate the recorded PBM E-score for every entry that follows.
target: Hap1 (UniProt P0CE41); assay: PBM E-score (8-mer binding enrichment) (E-score (-0.5 to 0.5)); higher = stronger / more preferred TF binding; conditions: protein concentration: 200 nM; construct: GST-DNA-binding domain
Whole data set: some 33,000 sequences, median “E-score (-0.5 to 0.5)” near -0.053, cut for the highest 2% near 0.37. The entries come from a sample that favours the highest values as a whole.
One number for each entry.

>  <SEQUENCE CONTENT>
CACTGACG

>  <PBM E-score>
-0.147

$$$$

Batch lookup, PBM E-score per entry.
1. ATACCCGG
2. ACGCCCAA
3. AGCTCGAC
4. CCCGGAGA
5. GCTCTTCC
6. CGATAAAA
7. ATACCCCG

Result:
1. 0.38
2. -0.133
3. -0.227
4. 0.428
5. 0.0685
6. 0.382
7. 0.346
